# TARGET DESC: EPSP synthase purified from the mutant glyphosate-resistant strain (Salmonella typhimurium, UniProt P07637, P101S)
# Construct: ES-3-P synthase purified from wild-type S. typhimurium and from the mutant glyphosate-resistant strain; endogenous in cells
# EXPERIMENTAL DETAILS: Fluorimetric EPSP synthase assay, forward direction, purified mutant enzyme
MEASUREMENT KIND: pKi
Answers are plain numbers, as −log10 of the molar value.

Task: Return pKi for the following molecule: O=C(O)CNCP(=O)(O)O [glyphosate, N-phosphonomethyl glycine]
Output: 5.30

###

# TARGET DESC: EPSP synthase purified from wild type S. typhimurium (Salmonella typhimurium)
# Construct: ES-3-P synthase purified from wild-type S. typhimurium; endogenous in cells; host or cells: wild-type S. typhimurium (purified)
# Sequence (P07637 whole entry): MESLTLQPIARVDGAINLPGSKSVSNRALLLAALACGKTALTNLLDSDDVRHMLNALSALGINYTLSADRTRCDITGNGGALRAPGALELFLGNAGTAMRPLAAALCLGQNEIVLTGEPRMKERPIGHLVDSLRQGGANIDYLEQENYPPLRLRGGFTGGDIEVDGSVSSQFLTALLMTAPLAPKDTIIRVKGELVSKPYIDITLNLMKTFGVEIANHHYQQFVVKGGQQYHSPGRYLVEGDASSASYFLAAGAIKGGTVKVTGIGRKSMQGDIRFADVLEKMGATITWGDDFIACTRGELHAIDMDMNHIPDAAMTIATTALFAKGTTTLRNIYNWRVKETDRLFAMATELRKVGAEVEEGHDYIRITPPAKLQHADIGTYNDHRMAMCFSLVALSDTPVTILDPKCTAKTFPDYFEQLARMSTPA
# EXPERIMENTAL DETAILS: Fluorimetric EPSP synthase assay, forward direction, purified wild type enzyme
# Format: biochemical
# CONDITION DETAILS: pH 7.0, 500 μM shik 3-P, read-out: Ki for glyphosate
MEASUREMENT KIND: pKi
Give bare numbers, as −log10 of the molar value.

Task: Lab note: EPSP synthase purified from wild type S. typhimurium (Salmonella typhimurium) assay, enter pKi for O=C(O)CNCP(=O)(O)O [glyphosate, N-phosphonomethyl glycine] here
Output: 5.82

###

# TARGET DESC: 5-enolpyruvyl-3-phosphoshikimate synthase from wild type strain STK1 (Salmonella typhimurium)
# Construct: endogenous in cells
# Sequence (P07637 whole entry): as above
# EXPERIMENTAL DETAILS: ES-3-P synthase assay (release of inorganic phosphate), enzyme preparation of wild type strain STK1
# CONDITION DETAILS: STK1 wild type enzyme preparation; read-out: Kd glyphosate
MEASUREMENT KIND: Kd (µM)
Numbers only, in µM.

Task: Return Kd for the following compound: O=C(O)CNCP(=O)(O)O [glyphosate, N-phosphonomethyl glycine]
Output: 22
